# Tested System: KRAS G12V (Homo sapiens, UniProt P01116, G12V)
# Construct: SW620-KRAS (G12V)-HiBit-KI cell (Pharmaron); host or cells: SW620-KRAS (G12V)-HiBit-KI cells (HiBiT knock-in at the endogenous KRAS locus)
# Sequence (P01116 1-188 isoform P01116-2 G12V): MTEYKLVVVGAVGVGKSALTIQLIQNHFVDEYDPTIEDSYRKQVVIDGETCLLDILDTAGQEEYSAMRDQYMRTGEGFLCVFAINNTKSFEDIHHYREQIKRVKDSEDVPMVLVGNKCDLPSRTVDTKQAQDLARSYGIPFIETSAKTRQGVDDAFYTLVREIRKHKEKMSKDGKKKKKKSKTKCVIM
# Protocol Text: KRAS G12V HiBit assay
# Assay type: cell-based
# Experimental Parameters: SW620-KRAS (G12V)-HiBit-KI cells, compound treatment for 24 hours, class symbols
Value Type: DC50

[[record]]
compound = "C#Cc1c(F)ccc2cccc(-c3ncc4c(N5CCC[C@@](C)(O)C5)nc(OCC5(CN6CCC(N7CCC(c8cccc9c8n(C)c(=O)n9C8CCC(=O)NC8=O)CC7)CC6)CC5)nc4c3F)c12 (stereo partly shown)"
tested_system = "KRAS G12V (Homo sapiens, UniProt P01116, G12V)"
experimental_value = "> 100 nM"

[[record]]
compound = "C#Cc1c(F)ccc2cccc(-c3ncc4c(N5CCC[C@@](C)(O)C5)nc(OC[C@@]56CCCN5[C@H](COC(=O)N5CCC(N7CCC(c8ccc9c(c8)n(C)c(=O)n9C8CCC(=O)NC8=O)CC7)CC5)CC6)nc4c3F)c12 (stereo partly shown)"
tested_system = "KRAS G12V (Homo sapiens, UniProt P01116, G12V)"
experimental_value = "> 100 nM"

[[record]]
compound = "CCc1cccc2cc(O)cc(-c3ncc4c(N5CCC[C@@](C)(O)C5)nc(OC[C@@]56CCCN5[C@H](COC(=O)N5CCC7(CC5)CC(N5CCC(c8ccc9c(c8)n(C)c(=O)n9C8CCC(=O)NC8=O)CC5)C7)CC6)nc4c3F)c12 (stereo partly shown)"
tested_system = "KRAS G12V (Homo sapiens, UniProt P01116, G12V)"
experimental_value = "< 10 nM"


Okay, now this compound:
[ask] Test system KRAS G12V (Homo sapiens, UniProt P01116, G12V); read-out DC50; what value for CCc1c(F)ccc2cc(O)cc(-c3ncc4c(N5CCC[C@@](C)(O)C5)nc(OC[C@]56CCCN5[C@@H](COC(=O)N5CCC(CN7CCC(c8cc9c(cc8F)n(C8CCC(=O)NC8=O)c(=O)n9C)CC7)CC5)CC6)nc4c3F)c12 (stereo partly shown) ?
[reply] < 10 nM

###

# Tested System: KRAS G12V (Homo sapiens, UniProt P01116, G12V)
# Construct: SW620-KRAS (G12V)-HiBit-KI cell (Pharmaron); host or cells: SW620-KRAS (G12V)-HiBit-KI cells (HiBiT knock-in at the endogenous KRAS locus)
# Protocol Text: KRAS G12V HiBit assay
# Format: cell-based
# Experimental Parameters: SW620-KRAS (G12V)-HiBit-KI cells, compound treatment for 24 hours, class symbols
Value Type: DC50

[[record]]
compound = "CCc1c(F)ccc2cc(O)cc(-c3ncc4c(N5CCC[C@@](C)(O)C5)nc(OC[C@@]56CCCN5[C@H](COC(=O)N5CCC7(CCC(N8CCC(c9ccc%10c(c9)n(C)c(=O)n%10C9CCC(=O)NC9=O)CC8)C7)CC5)CC6)nc4c3F)c12 (some centres unmarked)"
tested_system = "KRAS G12V (Homo sapiens, UniProt P01116, G12V)"
value_type = "DC50"
experimental_value = "< 10 nM"


[ask] Consider the compound CCc1c(F)ccc2cc(O)cc(-c3ncc4c(N5CCC[C@@](C)(O)C5)nc(OC[C@@]56CCCN5[C@H](CN(C)C(=O)c5ccc(CN7CCC(c8ccc9c(c8)n(C)c(=O)n9C8CCC(=O)NC8=O)CC7)cc5)CC6)nc4c3F)c12 (some centres unmarked) and give its measured DC50.
[reply] < 10 nM
